biological target: Dual specificity tyrosine-phosphorylation-regulated kinase 1A (Rattus norvegicus, UniProt Q63470); assay type: biochemical, Homo sapiens
Active and inactive are the calls of the source.
Assay Endpoint: AC50

1) CS(=O)(=O)Nc1ccc(-c2cc(/C=C3\SC(N)=NC3=O)cnc2O)cc1 : 265 nM (active)

Would you be so kind as to report AC50 for each listed record?
1. NC(=O)c1cc(Br)cc2c3c([nH]c12)CCCC3
2. O=C1OCC/C1=C\c1ccc(O)cc1
3. O=C(Nc1cccc(Cl)c1)Nc1nccs1
4. CCN1C(=O)/C(=C2/Sc3ccccc3N2CC)S/C1=N\c1nc[nH]n1

9320 nM (active)
585 nM (active)
8460 nM (active)
1040 nM (active)

====

target: ALK tyrosine kinase receptor (Homo sapiens, UniProt Q9UM73); assay type: functional;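 also: ALK tested as one member of a kinase panel screen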
Sequence (Q9UM73 whole entry): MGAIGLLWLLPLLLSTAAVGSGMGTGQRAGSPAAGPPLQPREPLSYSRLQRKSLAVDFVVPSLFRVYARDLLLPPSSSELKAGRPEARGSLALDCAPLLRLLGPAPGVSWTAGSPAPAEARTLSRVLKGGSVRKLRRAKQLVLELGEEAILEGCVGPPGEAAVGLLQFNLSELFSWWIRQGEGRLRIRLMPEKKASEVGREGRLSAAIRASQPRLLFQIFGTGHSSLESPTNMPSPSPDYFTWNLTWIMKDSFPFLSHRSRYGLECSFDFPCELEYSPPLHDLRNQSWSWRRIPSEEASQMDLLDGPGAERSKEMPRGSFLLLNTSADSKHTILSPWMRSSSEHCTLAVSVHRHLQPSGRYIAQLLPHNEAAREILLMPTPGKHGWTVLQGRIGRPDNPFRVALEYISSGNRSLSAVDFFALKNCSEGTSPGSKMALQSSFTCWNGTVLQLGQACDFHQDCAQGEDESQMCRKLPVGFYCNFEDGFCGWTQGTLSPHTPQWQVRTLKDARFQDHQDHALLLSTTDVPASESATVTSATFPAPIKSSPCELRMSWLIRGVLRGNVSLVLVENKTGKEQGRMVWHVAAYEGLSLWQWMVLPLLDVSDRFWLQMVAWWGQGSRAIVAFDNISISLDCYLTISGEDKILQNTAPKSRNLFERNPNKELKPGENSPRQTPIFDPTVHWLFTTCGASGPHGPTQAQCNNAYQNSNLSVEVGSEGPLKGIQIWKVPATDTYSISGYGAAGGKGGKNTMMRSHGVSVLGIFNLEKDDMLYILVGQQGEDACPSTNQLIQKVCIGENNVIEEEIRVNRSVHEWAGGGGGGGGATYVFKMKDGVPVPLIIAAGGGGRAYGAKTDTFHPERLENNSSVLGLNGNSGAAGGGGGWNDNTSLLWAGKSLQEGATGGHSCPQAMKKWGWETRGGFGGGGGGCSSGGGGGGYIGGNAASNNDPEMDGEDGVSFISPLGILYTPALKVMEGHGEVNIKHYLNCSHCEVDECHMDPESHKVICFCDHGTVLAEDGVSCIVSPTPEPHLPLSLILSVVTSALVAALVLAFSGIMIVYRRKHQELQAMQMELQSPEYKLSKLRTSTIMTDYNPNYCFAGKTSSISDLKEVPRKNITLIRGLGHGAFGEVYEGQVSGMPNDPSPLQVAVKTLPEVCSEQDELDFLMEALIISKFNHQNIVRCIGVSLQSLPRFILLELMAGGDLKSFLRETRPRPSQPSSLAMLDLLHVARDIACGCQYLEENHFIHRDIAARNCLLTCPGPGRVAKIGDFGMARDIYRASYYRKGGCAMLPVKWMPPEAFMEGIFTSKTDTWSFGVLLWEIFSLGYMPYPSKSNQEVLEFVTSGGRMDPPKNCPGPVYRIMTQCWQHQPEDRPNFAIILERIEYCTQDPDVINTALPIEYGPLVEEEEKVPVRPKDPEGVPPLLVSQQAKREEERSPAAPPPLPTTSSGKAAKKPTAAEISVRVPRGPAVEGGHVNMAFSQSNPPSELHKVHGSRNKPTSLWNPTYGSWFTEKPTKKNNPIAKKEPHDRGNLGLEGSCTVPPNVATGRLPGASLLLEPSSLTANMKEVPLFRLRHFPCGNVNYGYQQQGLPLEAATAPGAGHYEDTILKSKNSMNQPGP
Calls of active or inactive are those of the source.
I would appreciate it if you answered using one of these outcomes: label 1 for active, label 0 for inactive

1) OCc1cc(-c2ccc3[nH]ncc3c2)on1 : label 1

Hey, what did the test say about CC(C)CC(CO)NC(=O)c1cccc(-n2nc(C(C)(C)C)cc2NC(=O)Nc2cccc3ccccc23)c1 (centres undefined) ?
label 0

Hey, what did the test say about NC1CCC(Nc2nccc(-c3c[nH]c4ncccc34)n2)CC1 (centres undefined) ?
label 0

Hey, what did the test say about `CC(C)(O)c1cn(-c2ccc3[nH]ncc3c2)nn1` ?
label 1

====

Target: UniProt Q9GZR1
Sequence (Q9GZR1 whole entry): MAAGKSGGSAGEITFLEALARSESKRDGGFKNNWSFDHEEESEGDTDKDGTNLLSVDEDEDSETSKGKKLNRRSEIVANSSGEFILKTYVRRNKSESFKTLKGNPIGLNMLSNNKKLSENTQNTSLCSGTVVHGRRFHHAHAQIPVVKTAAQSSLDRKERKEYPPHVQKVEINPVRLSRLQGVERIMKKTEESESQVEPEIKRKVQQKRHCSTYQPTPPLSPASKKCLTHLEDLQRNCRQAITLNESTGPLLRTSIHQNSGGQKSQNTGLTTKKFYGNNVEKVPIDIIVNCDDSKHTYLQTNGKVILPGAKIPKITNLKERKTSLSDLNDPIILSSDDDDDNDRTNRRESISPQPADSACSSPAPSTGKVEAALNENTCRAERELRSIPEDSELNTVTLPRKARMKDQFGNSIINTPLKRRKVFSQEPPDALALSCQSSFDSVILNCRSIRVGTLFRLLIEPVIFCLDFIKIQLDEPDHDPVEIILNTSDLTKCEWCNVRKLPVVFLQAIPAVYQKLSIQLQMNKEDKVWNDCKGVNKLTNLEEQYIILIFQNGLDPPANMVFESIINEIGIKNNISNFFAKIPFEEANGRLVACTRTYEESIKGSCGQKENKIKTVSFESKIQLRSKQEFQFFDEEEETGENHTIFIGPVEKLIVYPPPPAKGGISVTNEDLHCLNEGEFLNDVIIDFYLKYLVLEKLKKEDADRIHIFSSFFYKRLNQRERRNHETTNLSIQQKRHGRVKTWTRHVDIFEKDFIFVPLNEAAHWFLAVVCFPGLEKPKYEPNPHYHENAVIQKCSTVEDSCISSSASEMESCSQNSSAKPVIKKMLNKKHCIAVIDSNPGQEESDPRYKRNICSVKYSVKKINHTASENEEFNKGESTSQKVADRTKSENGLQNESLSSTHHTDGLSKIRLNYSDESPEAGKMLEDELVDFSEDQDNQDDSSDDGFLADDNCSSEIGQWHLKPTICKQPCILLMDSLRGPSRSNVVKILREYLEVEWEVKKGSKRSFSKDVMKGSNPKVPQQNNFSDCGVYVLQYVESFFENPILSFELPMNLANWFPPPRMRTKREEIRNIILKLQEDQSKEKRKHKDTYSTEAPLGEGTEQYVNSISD
Type: functional
Calls of active or inactive are those of the source.
I would appreciate it if you answered using one of these outcomes: T for active, F for inactive

1) Cc1ccccc1-c1nc2cc(Cl)ccc2o1 : T
2) CC(C)C(=O)Nc1ccc2nn(-c3ccccc3)nc2c1 : F
3) O=C1C2=[N+]([O-])[C@H]3CCCC[C@H]3[N+]([O-])=C2c2ccccc21 : T

Then this compound:
Hey, what did the test say about `CCCCNc1nc(N)nc(-c2cc(Cl)ccc2O)n1` ?
F

Attribution: ChEMBL document CHEMBL1201862
